# Tgt: human TGR5 (h-TGR5) (Homo sapiens, UniProt Q8TDU6)
# Construct: expressed in transfected cells
# Sequence (Q8TDU6 whole entry): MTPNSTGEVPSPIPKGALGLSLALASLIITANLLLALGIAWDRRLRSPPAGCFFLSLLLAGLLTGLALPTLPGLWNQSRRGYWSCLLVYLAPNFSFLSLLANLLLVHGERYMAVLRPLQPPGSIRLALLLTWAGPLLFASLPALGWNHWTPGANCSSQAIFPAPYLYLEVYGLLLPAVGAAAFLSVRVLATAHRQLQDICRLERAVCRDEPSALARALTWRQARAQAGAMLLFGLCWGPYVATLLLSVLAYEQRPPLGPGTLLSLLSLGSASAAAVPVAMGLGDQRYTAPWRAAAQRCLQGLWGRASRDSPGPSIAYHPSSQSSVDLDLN
# Experimental details: TGR5/CRE-Luciferiase Assay (HEK 293 hTGR5/CRE-Luc cells)
# Type: cell-based
# Run conditions: h-TGR5 CRE-Luc EC50, Table 1; read-out: CRE-Luc (EC50)
pEC50: −log10 of the molar value.
Measure: pEC50

COc1ccc(C2CCCCN2S(=O)(=O)c2ncc(C(C)(C)c3ccc(Cl)c(Cl)c3)n2-c2ccc(F)cc2)cn1 (stereo not drawn)    6.00 to 7.00
CC(C)(c1ccc(Cl)c(Cl)c1)c1cnc(SCc2ccc(F)cc2Cl)n1-c1ccc(F)c(F)c1    6.00 to 7.00
CCOC(=O)NS(=O)(=O)c1ccc(CSc2ncc(C(C)(C)c3ccc(S(N)(=O)=O)c(Cl)c3)n2-c2ccc(F)c(OC)c2)c(Cl)c1    > 7.00
COc1ccc(C(C)(C)c2cnc(SCc3ccc(S(N)(=O)=O)cc3Cl)n2-c2ccc(F)cc2)cc1Cl    > 7.00
CC(C)(O)CNC(=O)c1ccc(CSc2ncc(C(C)(C)c3ccc(Cl)c(Cl)c3)n2-c2ccc(F)cc2)c(F)c1    6.00 to 7.00
COCCOCCOCCOCCOCCOCCOCCOCCOCCOCCOCCOCCOCCOCCNS(=O)(=O)c1cc(F)c(CSc2ncc(C(C)(C)c3ccc(Cl)c(OC)c3)n2-c2ccc(F)cc2)c(Cl)c1    > 7.00
CC(C)(c1ccc(F)cc1)c1cnc(SCc2ccc(S(=O)(=O)NC(=O)NN3CCCC3)cc2Cl)n1-c1ccc(F)c(Cl)c1    6.00 to 7.00
COc1ccc(C(C)(C)c2cnc(C(=O)Nc3ccc(F)cc3Cl)n2-c2ccc(F)cc2)cc1OC    5.00 to 6.00
COc1cc(-n2c(C(C)(C)c3ccc(S(N)(=O)=O)c(Cl)c3)cnc2SCc2c(F)cc(S(=O)(=O)NC(=O)NN3CCOCC3)cc2F)ccc1F    > 7.00

The measured values listed here are drawn from patent US8785488B2.
